- Test system: PANC-1
- test protocol: In vitro drug sensitivity of pre-existing human pancreatic cancer cell line (surviving cell number, IC50)
- Format: cell-based
- run parameters: cells surviving 72 hours after addition
measured property: pIC50
Note on units: pIC50 is unitless, being -log10 of a concentration expressed in mol/L.

Prompt: Param readout = pIC50; param system = PANC-1; param query = Nc1ccn([C@@H]2O[C@H](CO)[C@@H](O)C2(F)F)c(=O)n1 ; response: value
Response: 6.15
